# TESTED_ON: C3 purified from fresh human plasma (human, UniProt P01024 23-1663)
# Sequence (P01024 23-1663): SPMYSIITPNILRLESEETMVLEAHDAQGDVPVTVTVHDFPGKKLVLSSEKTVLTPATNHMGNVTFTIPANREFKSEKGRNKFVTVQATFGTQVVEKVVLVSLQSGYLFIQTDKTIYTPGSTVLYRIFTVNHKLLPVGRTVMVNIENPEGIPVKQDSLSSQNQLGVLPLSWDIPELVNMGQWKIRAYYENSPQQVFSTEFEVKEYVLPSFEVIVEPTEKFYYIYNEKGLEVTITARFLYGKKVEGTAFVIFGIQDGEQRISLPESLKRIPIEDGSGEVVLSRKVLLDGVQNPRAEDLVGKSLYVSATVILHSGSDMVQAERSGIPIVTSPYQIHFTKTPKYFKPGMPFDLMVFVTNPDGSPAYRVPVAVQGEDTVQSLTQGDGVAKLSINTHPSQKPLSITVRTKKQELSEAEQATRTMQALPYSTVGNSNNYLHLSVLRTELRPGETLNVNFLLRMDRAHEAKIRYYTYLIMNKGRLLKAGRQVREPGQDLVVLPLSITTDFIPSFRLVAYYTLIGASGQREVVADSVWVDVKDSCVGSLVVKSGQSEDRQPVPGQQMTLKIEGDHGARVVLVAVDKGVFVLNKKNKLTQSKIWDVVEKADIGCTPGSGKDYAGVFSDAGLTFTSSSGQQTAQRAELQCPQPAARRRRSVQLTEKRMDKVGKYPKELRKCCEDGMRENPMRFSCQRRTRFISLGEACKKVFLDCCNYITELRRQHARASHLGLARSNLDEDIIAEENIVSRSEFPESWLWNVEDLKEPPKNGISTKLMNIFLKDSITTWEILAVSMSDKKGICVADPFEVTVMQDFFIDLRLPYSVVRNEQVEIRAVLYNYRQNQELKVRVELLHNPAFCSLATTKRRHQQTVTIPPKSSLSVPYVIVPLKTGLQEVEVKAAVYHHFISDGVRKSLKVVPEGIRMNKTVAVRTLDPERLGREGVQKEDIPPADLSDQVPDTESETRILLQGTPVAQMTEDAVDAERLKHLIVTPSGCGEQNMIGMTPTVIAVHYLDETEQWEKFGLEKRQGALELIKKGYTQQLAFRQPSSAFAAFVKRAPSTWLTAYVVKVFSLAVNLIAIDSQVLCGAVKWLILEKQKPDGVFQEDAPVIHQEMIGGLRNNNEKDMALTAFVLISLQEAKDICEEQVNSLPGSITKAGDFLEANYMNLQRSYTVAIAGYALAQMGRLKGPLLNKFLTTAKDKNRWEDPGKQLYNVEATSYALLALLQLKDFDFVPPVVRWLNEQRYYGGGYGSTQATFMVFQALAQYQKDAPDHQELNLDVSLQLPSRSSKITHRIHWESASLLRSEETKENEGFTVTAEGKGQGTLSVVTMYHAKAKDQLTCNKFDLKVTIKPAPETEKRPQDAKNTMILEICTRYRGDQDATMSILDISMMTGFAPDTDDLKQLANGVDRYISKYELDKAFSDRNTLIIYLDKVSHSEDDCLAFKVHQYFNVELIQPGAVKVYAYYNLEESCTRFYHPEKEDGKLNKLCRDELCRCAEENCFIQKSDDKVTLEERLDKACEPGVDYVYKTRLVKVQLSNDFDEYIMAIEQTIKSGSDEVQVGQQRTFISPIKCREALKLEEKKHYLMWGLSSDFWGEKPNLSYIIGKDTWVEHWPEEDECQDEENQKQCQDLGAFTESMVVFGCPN
# ASSAY_EXPLANATION: cell-based or functional assay
Bridge positions count the residues as written; N and C are the ends. Square brackets hold non-standard residues; d marks the D form. Trp(1-Me) = Cn1cc(C[C@H](N)C(=O)O)c2ccccc21; Nle = CCCC[C@H](N)C(=O)O; Sar = CNCC(=O)O
MEASURE_NAME: Fold change in activity (IC50) relative to SEQ ID NO:4 (fold)
Answers are plain numbers, in fold.

[in] Query: Fold change in activity (IC50) relative to SEQ ID NO:4; subject: Ac-ICV[Trp(1-Me)]QDW[Sar]AHRC[Nle]-NH2 (disulfide 2-12; SMILES CCCC[C@H](NC(=O)[C@@H]1CSSC[C@H](NC(=O)[C@@H](NC(C)=O)[C@@H](C)CC)C(=O)N[C@@H](C(C)C)C(=O)N[C@@H](Cc2cn(C)c3ccccc23)C(=O)N[C@@H](CCC(N)=O)C(=O)N[C@@H](CC(=O)O)C(=O)N[C@@H](Cc2c[nH]c3ccccc23)C(=O)N(C)CC(=O)N[C@@H](C)C(=O)N[C@@H](Cc2c[nH]cn2)C(=O)N[C@@H](CCCNC(=N)N)C(=O)N1)C(N)=O) [Ac-Ic[CV(1-MeW)QDW(N-MeG)AHRC](Nle)-NH2]
[out] 1.9
